TARGET: T1, human CD24 (human, UniProt P25063 27-59, heavily glycosylated, GPI-anchored (as described in the background))
T1 construct: whole, on cells; Target of all cell-based FACS assays; also called hCD24; Cluster of differentiation 24
T1 chain (looked up): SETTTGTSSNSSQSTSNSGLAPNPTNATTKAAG
ASSAY EXPLANATION: FACS, Nalm1 cells
Reported Max MFI by item:
Just the number, please, no unit after it.

BINDER | EXPERIMENTAL RESULT
56A7E3 (antibody, V domains shown, mouse monoclonal antibody) VH: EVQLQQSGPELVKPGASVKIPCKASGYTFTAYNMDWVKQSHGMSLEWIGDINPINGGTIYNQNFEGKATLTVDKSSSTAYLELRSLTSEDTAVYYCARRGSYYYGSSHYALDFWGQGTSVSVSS VL: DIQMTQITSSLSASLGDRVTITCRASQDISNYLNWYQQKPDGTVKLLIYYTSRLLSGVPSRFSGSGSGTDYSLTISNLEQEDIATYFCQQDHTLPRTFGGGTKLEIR | 74600
58F10-1F6 (antibody, V domains shown, mouse monoclonal antibody) VH: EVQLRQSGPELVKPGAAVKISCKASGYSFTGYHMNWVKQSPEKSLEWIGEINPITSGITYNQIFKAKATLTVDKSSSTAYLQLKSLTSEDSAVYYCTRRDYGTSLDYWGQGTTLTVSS VL: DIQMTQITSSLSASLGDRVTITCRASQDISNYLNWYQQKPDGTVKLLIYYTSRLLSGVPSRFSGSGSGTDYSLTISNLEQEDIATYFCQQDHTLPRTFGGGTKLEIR | 60300

Turning now to a further binder:
Param item = 71A4F12 (antibody, V domains shown, mouse monoclonal antibody) VH: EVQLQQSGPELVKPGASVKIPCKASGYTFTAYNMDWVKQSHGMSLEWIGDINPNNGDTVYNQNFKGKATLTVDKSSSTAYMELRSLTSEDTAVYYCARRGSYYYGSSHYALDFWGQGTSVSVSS VL: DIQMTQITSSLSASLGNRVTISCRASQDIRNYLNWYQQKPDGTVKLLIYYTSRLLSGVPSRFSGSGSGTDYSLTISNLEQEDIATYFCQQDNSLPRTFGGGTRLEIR ; retrieve measured Max MFI.
45000
